Target: T1, influenza B/Lee/1940 (B/Lee40) HA (influenza B virus B/Lee/1940, biotin on the BirA biotinylation site (BirA kit))
T1 construct: source: Sf9 (baculovirus), purified from the supernatant (Ni Sepharose excel, SEC)
T1 chain: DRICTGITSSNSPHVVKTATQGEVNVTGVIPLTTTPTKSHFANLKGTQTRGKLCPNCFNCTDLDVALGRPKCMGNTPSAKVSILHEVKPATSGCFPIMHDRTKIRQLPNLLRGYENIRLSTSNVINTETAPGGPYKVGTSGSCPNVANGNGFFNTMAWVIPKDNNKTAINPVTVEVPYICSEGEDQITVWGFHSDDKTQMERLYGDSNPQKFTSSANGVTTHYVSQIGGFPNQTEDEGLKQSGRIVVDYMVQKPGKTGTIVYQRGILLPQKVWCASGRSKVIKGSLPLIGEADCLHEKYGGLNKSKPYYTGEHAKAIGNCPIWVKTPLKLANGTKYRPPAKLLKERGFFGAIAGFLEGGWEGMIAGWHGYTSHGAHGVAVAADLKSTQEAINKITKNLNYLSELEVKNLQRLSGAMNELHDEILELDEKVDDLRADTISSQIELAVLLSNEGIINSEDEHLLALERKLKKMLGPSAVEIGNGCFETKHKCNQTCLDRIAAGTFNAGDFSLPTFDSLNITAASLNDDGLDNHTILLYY
Assay: BLI
Details: both partners purified

# binder, binding result
records = [
    ("somatic CR9114 Fab VH S24L (Fab, V domains shown) VH: QVQLVQSGAEVKKPGSSVKVSCKLSGGTSNNYAISWVRQAPGQGLDWMGGISPIFGSTAYAQKFQGRVTISADIFSNTAYMELNSLTSEDTAVYFCARHGNYYYYSGMDVWGQGTTVTVSS VL: SYVLTQPPAVSGTPGQRVTISCSGSDSNIGRRSVNWYQQFPGTAPKLLIYSNDQRPSVVPDRFSGSKSGTSASLAISGLQSEDEAEYYCAAWDDSLKGAVFGGGTQLTVL", "no binding"),
    ("somatic CR9114 Fab VH S52V (Fab, V domains shown) VH: QVQLVQSGAEVKKPGSSVKVSCKSSGGTSNNYAISWVRQAPGQGLDWMGGIVPIFGSTAYAQKFQGRVTISADIFSNTAYMELNSLTSEDTAVYFCARHGNYYYYSGMDVWGQGTTVTVSS VL: SYVLTQPPAVSGTPGQRVTISCSGSDSNIGRRSVNWYQQFPGTAPKLLIYSNDQRPSVVPDRFSGSKSGTSASLAISGLQSEDEAEYYCAAWDDSLKGAVFGGGTQLTVL", "no binding"),
    ("somatic CR9114 Fab VH S24F (Fab, V domains shown) VH: QVQLVQSGAEVKKPGSSVKVSCKFSGGTSNNYAISWVRQAPGQGLDWMGGISPIFGSTAYAQKFQGRVTISADIFSNTAYMELNSLTSEDTAVYFCARHGNYYYYSGMDVWGQGTTVTVSS VL: SYVLTQPPAVSGTPGQRVTISCSGSDSNIGRRSVNWYQQFPGTAPKLLIYSNDQRPSVVPDRFSGSKSGTSASLAISGLQSEDEAEYYCAAWDDSLKGAVFGGGTQLTVL", "no binding"),
    ("somatic CR9114 Fab VH I73W (Fab, V domains shown) VH: QVQLVQSGAEVKKPGSSVKVSCKSSGGTSNNYAISWVRQAPGQGLDWMGGISPIFGSTAYAQKFQGRVTISADWFSNTAYMELNSLTSEDTAVYFCARHGNYYYYSGMDVWGQGTTVTVSS VL: SYVLTQPPAVSGTPGQRVTISCSGSDSNIGRRSVNWYQQFPGTAPKLLIYSNDQRPSVVPDRFSGSKSGTSASLAISGLQSEDEAEYYCAAWDDSLKGAVFGGGTQLTVL", "no binding"),
]
